Listed here: items and their measured pIC50.
assayedSystem: FAAH (Mus musculus)
Construct: Whole brain tissue from these mice was collected
Sequence (O08914 1-579): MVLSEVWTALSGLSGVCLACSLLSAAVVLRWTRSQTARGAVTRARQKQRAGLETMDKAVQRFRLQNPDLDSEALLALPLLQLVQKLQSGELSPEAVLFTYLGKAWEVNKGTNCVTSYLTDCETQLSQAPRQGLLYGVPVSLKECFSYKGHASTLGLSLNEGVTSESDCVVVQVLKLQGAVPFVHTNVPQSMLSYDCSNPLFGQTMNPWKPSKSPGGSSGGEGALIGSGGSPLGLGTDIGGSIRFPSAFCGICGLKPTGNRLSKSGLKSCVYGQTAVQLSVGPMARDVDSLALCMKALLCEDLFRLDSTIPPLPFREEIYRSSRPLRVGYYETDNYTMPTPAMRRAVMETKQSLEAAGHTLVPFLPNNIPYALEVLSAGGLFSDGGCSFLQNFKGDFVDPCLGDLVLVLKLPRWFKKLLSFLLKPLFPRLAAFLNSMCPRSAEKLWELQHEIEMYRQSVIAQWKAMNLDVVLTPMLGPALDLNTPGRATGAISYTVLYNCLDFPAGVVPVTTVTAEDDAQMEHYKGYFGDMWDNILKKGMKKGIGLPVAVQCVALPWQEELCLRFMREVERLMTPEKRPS
assayProcedure: FAAH inhibition, mouse brain membrane homogenate assay
reportedConditions: average; FAAH extracted from mouse brain homogenate; read-out: Mouse Brain FAAH Extract IC50
// field semantics: pIC50 = negative decimal log of concentration (mol/L)

Worked examples follow.
• COc1cc(NC(=O)C(=O)c2c(C)n(Cc3ccc(Cl)cc3)c3sccc23)ccn1 = 7.21
• COc1cc(NC(=O)C(=O)c2c3c(n(Cc4ccc(Cl)cc4)c2C)CCCCCC3)ccn1 = 6.72
• COc1cc(NC(=O)C(=O)c2c3c(n(Cc4ccc(Cl)cc4)c2C)CCCCC3)ccn1 = 8.52
• Cc1c(C(=O)C(=O)Nc2cccc(Cl)c2)c2c(n1Cc1ccc(Cl)cc1)CCC(C)(C)C2 = 6.29

Kindly consider the entry below.
# get_value(readout='pIC50', item= Cc1c(C(=O)C(=O)Nc2cccc(Cl)c2)c2c(n1Cc1ccc(Cl)cc1)CCCCC2 ) 5.96
